Test: Cytotoxicity against human MT4 cells assessed as cell viability after 5 days by Cell-Titer Glo assay
Assay type: cell-based
Catalogue of compounds with associated CC50 at 120 h

See these solved cases before continuing.
- STRUCTURE SMILES STRING: "Nc1nc2c(ncn2[C@@H]2O[C@H](CO)[C@@H](O)[C@H]2F)c(=O)[nH]1"
  RESULT: "> 49 µM"
- STRUCTURE SMILES STRING: "CC[C@]1(CO)O[C@@H](c2ccc3c(N)ncnn23)[C@H](F)[C@@H]1O"
  RESULT: "> 114 µM"
- STRUCTURE SMILES STRING: "C=C[C@]1(CO)O[C@@H](c2ccc3c(N)ncnn23)[C@H](F)[C@@H]1O"
  RESULT: "> 114 µM"
- STRUCTURE SMILES STRING: "C=C[C@]1(CO)O[C@@H](n2ccc(N)nc2=O)[C@H](F)[C@@H]1O"
  RESULT: "> 57 µM"
- STRUCTURE SMILES STRING: "N#C[C@]1(CO)O[C@@H](c2ccc3c(N)ncnn23)[C@H](F)[C@@H]1O"
  RESULT: "> 114 µM"

input: GET /values?readout=CC50 at 120 h&item= CC[C@]1(CO)O[C@@H](n2ccc(N)nc2=O)[C@H](F)[C@@H]1O
output: > 57 µM
